# Test system: NCI-H23 lung
# experiment description: NCI-60 one-dose screen, 48 h (100 = growth as untreated, 0 = no growth, -100 = all killed)
# condition label: 10 µM unless noted
Compounds without any hit were thinned out: in the full panel of roughly 83,000, 20% have a hit.
Parameter: growth. Scope: all listed entries.
The figure you give is taken to be in %; do not add the unit.

// known answers, use as guide
| compound | output unit | growth |
| --- | --- | --- |
| CCCOCc1cn[nH]n1 | % | 107 |
| O=C(O)C1CCCN1C(=O)OCc1ccccc1 (stereo not given) | % | 104 |
| CCOC(=O)Nc1nccs1 | % | 112 |
| Oc1cccc(CNC2CCCCC2)c1 | % | 107 |
| Cc1cccnc1NC1OC(=O)c2ccccc21 (stereo not given) | % | 100 |
| Cn1c(=O)c2[nH]c(CC(=O)O)nc2n(C)c1=O | % | 100 |
| Nc1cc2c(cc1Cl)C(=O)c1ccccc1C2=O | % | 0.869 |
| CC(=O)Nc1ccc(C(=O)c2ccc(S(=O)(=O)Nc3ccccc3)cc2)cc1 | % | 231 |

Req: Please state recorded growth (tested on NCI-H23 lung) of c1ccc(Nc2ccccn2)nc1
Resp: 95.9

Req: Please state recorded growth (tested on NCI-H23 lung) of CCOc1ccc(C(=O)NCC(C)C)cc1
Resp: 107

* * *

# Tested on: UACC-62 melanoma
# experiment description: NCI-60 one-dose screen, 48 h (100 = growth as untreated, 0 = no growth, -100 = all killed)
# condition label: 10 µM unless noted
Compounds without any hit were thinned out: in the full panel of roughly 83,000, 20% have a hit.
outcome measure: growth (%)
The figure you give is taken to be in %; do not add the unit.

// known answers, use as guide
| compound | target | growth [%] |
| --- | --- | --- |
| CC(C)N1CC(=O)N2CSCC2C1=O (stereo unspecified) | UACC-62 melanoma | 104 |
| CC(C)Sc1ncnc2nc[nH]c12 | UACC-62 melanoma | 93.3 |
| O=C(O)c1cccc(-n2ncc(Cl)c(Cl)c2=O)c1 | UACC-62 melanoma | 97.2 |

Req: Please state recorded growth (tested on UACC-62 melanoma) of O=S(=O)(c1ccc(NC(=S)NCc2cccnc2)cc1)N1CCCCC1
Resp: 93.7

Req: Please state recorded growth (tested on UACC-62 melanoma) of C=C1SC(=Nc2c(C)cccc2C)N(c2nc(Cl)nc(Cl)n2)C12CCCCC2
Resp: 105

Req: Please state recorded growth (tested on UACC-62 melanoma) of Ic1cccs1
Resp: 98.5

Req: Please state recorded growth (tested on UACC-62 melanoma) of CCOC(=O)N[C@H]1CCc2cc(OC)c(OC)c(OC)c2-c2ccc(SC)c(=O)cc21
Resp: 39.9

Req: Please state recorded growth (tested on UACC-62 melanoma) of Cc1ccc(NC(=O)c2ccccc2Cl)cc1
Resp: 98.6

Req: Please state recorded growth (tested on UACC-62 melanoma) of O=C(O)CC1=CCCCC1
Resp: 98

Req: Please state recorded growth (tested on UACC-62 melanoma) of Cc1ccc2nc(-c3ccc(N=Cc4ccccc4O)cc3)sc2c1
Resp: 84.7

Req: Please state recorded growth (tested on UACC-62 melanoma) of CC(=O)N=c1ccc2nc3c(cc(N)c4ccccc43)oc-2c1
Resp: -61.2

Req: Please state recorded growth (tested on UACC-62 melanoma) of O=C(O)Cc1cccc2ccccc12
Resp: 110

Req: Please state recorded growth (tested on UACC-62 melanoma) of N#C/C(=C\c1ccc(C#N)cc1)C(=O)c1ccccc1
Resp: 92.8

Req: Please state recorded growth (tested on UACC-62 melanoma) of COc1ccc(Br)c2c1C(=O)CC2
Resp: 90.4

Req: Please state recorded growth (tested on UACC-62 melanoma) of O=C(N/N=C\c1ccc(Cl)cc1Cl)c1ccncc1
Resp: 106

Req: Please state recorded growth (tested on UACC-62 melanoma) of NCCCN1CCCC1=O
Resp: 96.4

* * *

# Tested on: 786-0 renal
# experiment description: NCI-60 one-dose screen, 48 h
# condition label: 10 µM unless noted
Compounds without any hit were thinned out: in the full panel of roughly 83,000, 20% have a hit. Active and inactive are the calls of the source. The calls were made as follows: active = growth percent below 10; inactive = the rest.
Please reply with one of these outcomes: y for active, n for inactive

| compound | class assignment |
| --- | --- |
| COC1OC(CO)C(OC)C(O)C1O (stereo not given) | n |
| Cc1ccc(NCN2C(=O)c3ccccc3C2=O)c(C)n1 | n |
| NCCCN1CCCC1=O | n |
| O=C(O)c1ccc(OCc2ccccc2)cc1 | n |
| O=c1n(CC2CO2)c(=O)n(CC2CO2)n1CC1CO1 (stereo not given) | n |
| NNC(=O)CCCCl | n |
| O=C(OCC1CCCO1)c1ccc([N+](=O)[O-])cc1 (stereo not given) | n |
| C=C1SC(=Nc2c(C)cccc2C)N(c2nc(Cl)nc(Cl)n2)C12CCCCC2 | n |

Req: What is the recorded call for this compound in the test? O=CNCCc1ccccc1
Resp: n

Req: What is the recorded call for this compound in the test? CC(C)c1ccc(C(=O)OCCCl)cc1
Resp: n

Req: What is the recorded call for this compound in the test? Cc1ccc[n+](CCC(N)=O)c1
Resp: n

Req: What is the recorded call for this compound in the test? COc1ccc(Nc2cc(Cl)ccc2C(=O)O)cn1
Resp: n

Req: What is the recorded call for this compound in the test? O=C(NCCc1ccccc1)/C(=C\c1ccc(Cl)cc1Cl)NC(=O)c1ccccc1
Resp: n

* * *

# Test system: OVCAR-3 ovarian
# experiment description: NCI-60 one-dose screen, 48 h
# condition label: 10 µM unless noted
About 83,000 compounds went through this panel and 20% of them were active in at least one assay; those are over-represented in the sample as a whole. The source made the active and inactive calls. Rule for the calls: active = growth percent below 10; inactive = the rest.
Please reply with one of these outcomes: active, inactive

| molecule | class assignment |
| --- | --- |
| CC(=O)OCC1CCC(COC(C)=O)CC1 (configuration not stated) | inactive |
| Cc1cc(CO)c(O)c(CO)c1 | inactive |
| Oc1ccc(CCC2CCNc3ccccc32)cc1 (configuration not stated) | inactive |
| CCCC(=O)c1cccs1 | inactive |
| CCOC(=O)c1ccc(NC(C)=O)o1 | inactive |

Req: What is the recorded call for this molecule in the test? CCOc1ccc(C(=O)O)cc1
Resp: inactive

Req: What is the recorded call for this molecule in the test? Cc1ccc(C)c(CCO)c1
Resp: inactive

Req: What is the recorded call for this molecule in the test? CCOS(=O)(=O)c1ccc([N+](=O)[O-])cc1
Resp: inactive

Req: What is the recorded call for this molecule in the test? CC(=O)NNC(=S)N/C=C/c1c(C)ccc([N+](=O)[O-])c1[N+](=O)[O-]
Resp: inactive

Req: What is the recorded call for this molecule in the test? Clc1cccc(Cl)c1CSc1nc2ccccc2n2cccc12
Resp: inactive

Req: What is the recorded call for this molecule in the test? CCCCCCCCCCCCCC/C=C\C(CC(=O)O)C(=O)O (configuration not stated)
Resp: inactive

Req: What is the recorded call for this molecule in the test? C=CCS(C)(=O)=O
Resp: inactive

Req: What is the recorded call for this molecule in the test? CC(=O)CSc1ncnc2nc[nH]c12
Resp: inactive

Req: What is the recorded call for this molecule in the test? Cc1ccc(S(=O)(=O)Oc2ccc3sc4c(CO)ccc(NCCN(C)C)c4c(=O)c3c2)cc1
Resp: active

Req: What is the recorded call for this molecule in the test? O=C(NC(=S)N1CC=CCC1)c1ccccc1
Resp: inactive

Req: What is the recorded call for this molecule in the test? O=c1nc(Nc2cccc(Cl)c2)oc2cc(Cl)oc(=O)c12
Resp: inactive

Req: What is the recorded call for this molecule in the test? COC(=O)c1ccccc1C(=O)c1c(C)cc(C)cc1C
Resp: inactive

* * *

# Tested on: PC-3 prostate
# experiment description: NCI-60 one-dose screen, 48 h (100 = growth as untreated, 0 = no growth, -100 = all killed)
# condition label: 10 µM unless noted
The panel holds about 83,000 compounds, 20% with a hit somewhere; the sample as a whole holds those more often.
The threshold is 90%. Values of growth beneath it are tagged TRUE; values meeting or exceeding it are tagged FALSE.

Worked examples follow.
| compound | target | class assignment |
| --- | --- | --- |
| CNc1ccccc1C(N)=O | PC-3 prostate | FALSE |
| O=Cc1ccc(F)cc1 | PC-3 prostate | FALSE |
| O=S(=O)(c1ccc(NC(=S)NCc2cccnc2)cc1)N1CCCCC1 | PC-3 prostate | TRUE |
| CSCC[C@@H]1C(=O)N(C)[C@H](C(C)(C)C)N1C(=O)c1ccccc1 | PC-3 prostate | FALSE |
| O=C(NC(=S)N1CC=CCC1)c1ccccc1 | PC-3 prostate | FALSE |
| CSc1nsc(N)n1 | PC-3 prostate | FALSE |

Req: Bench note: check whether Cc1cc2c(C(C)C)c(O)c(O)c(C=Nc3ccccc3[N+](=O)[O-])c2c(O)c1-c1c(C)cc2c(C(C)C)c(O)c(O)c(C=Nc3ccccc3[N+](=O)[O-])c2c1O shows growth below 90%
Resp: TRUE

Req: Bench note: check whether O=C(c1ccccc1O)N1CCCC1 shows growth below 90%
Resp: TRUE

Req: Bench note: check whether COC1OC(CO)C(OC)C(O)C1O (stereo unspecified) shows growth below 90%
Resp: FALSE

Req: Bench note: check whether CCOC(=O)c1ccc(NC(C)=O)o1 shows growth below 90%
Resp: FALSE

Req: Bench note: check whether Clc1ccc(-c2noc(/C=C\c3ccccc3)n2)cc1 shows growth below 90%
Resp: FALSE
